Listing of entries alongside the reported ΔS.
# system_tested: T1, E. coli β clamp (β subunit of DNA polymerase III, dnaN gene product) (E. coli, UniProt P0A988 1-366)
# T1 construct: Expressed in BL21 E. coli from pET15b with an N-terminal tag; also called β ring; β protein; not shown: N-terminal tag from plasmid pET15b ('N-tagged protein', purified on Ni-NTA)
# assay_name: ITC, peptide 400 µM into β ring 20 µM, 25 °C, second experiment
Square brackets hold non-standard residues; d marks the D form. Phe(3,4-Cl2) = N[C@@H](Cc1ccc(Cl)c(Cl)c1)C(=O)O; Phe(4-Br) = N[C@@H](Cc1ccc(Br)cc1)C(=O)O; Phe(4-Cl) = N[C@@H](Cc1ccc(Cl)cc1)C(=O)O; Phe(4-Me) = Cc1ccc(C[C@H](N)C(=O)O)cc1; Cha = N[C@@H](CC1CCCCC1)C(=O)O
quantity_measured: ΔS (cal/mol/deg)

binder: Ac-Q[Cha]DL[Phe(4-Cl)]-OH (SMILES CC(=O)N[C@@H](CCC(N)=O)C(=O)N[C@@H](CC1CCCCC1)C(=O)N[C@@H](CC(=O)O)C(=O)N[C@@H](CC(C)C)C(=O)N[C@@H](Cc1ccc(Cl)cc1)C(=O)O, also called AcQChaDLpClF; Ac-Q Cha DL pClF) [P12 (Ac-Gln-Cha-Asp-Leu-pClPhe-OH)]
quantity_measured: ΔS
numeric_value: -16.3
//
binder: Ac-Q[Cha]DL[Phe(4-Br)]-OH (SMILES CC(=O)N[C@@H](CCC(N)=O)C(=O)N[C@@H](CC1CCCCC1)C(=O)N[C@@H](CC(=O)O)C(=O)N[C@@H](CC(C)C)C(=O)N[C@@H](Cc1ccc(Br)cc1)C(=O)O, also called AcQChaDLpBrF; Ac-Q Cha DL pBrF) [P13 (Ac-Gln-Cha-Asp-Leu-pBrPhe-OH)]
quantity_measured: ΔS
numeric_value: -20.2
//
binder: Ac-Q[Cha]DL[Phe(3,4-Cl2)]-OH (SMILES CC(=O)N[C@@H](CCC(N)=O)C(=O)N[C@@H](CC1CCCCC1)C(=O)N[C@@H](CC(=O)O)C(=O)N[C@@H](CC(C)C)C(=O)N[C@@H](Cc1ccc(Cl)c(Cl)c1)C(=O)O, also called AcQChaDLdiClF; Ac Q Cha D L diClF) [P14 (Ac-Gln-Cha-Asp-Leu-(3,4-di-Cl)Phe-OH)]
quantity_measured: ΔS
numeric_value: -27.6
//
binder: Ac-Q[Cha]DL[Phe(4-Me)]-OH (SMILES CC(=O)N[C@@H](CCC(N)=O)C(=O)N[C@@H](CC1CCCCC1)C(=O)N[C@@H](CC(=O)O)C(=O)N[C@@H](CC(C)C)C(=O)N[C@@H](Cc1ccc(C)cc1)C(=O)O, also called AcQChaDLpMeF; Ac-Q Cha DL pMeF) [P11 (Ac-Gln-Cha-Asp-Leu-pMePhe-OH)]
quantity_measured: ΔS
numeric_value: -19
